The following molecules are listed with their measured inhibition values.
- TARGET ENTITY: Ribosomal protein S6 kinase alpha-3 (Homo sapiens, UniProt P51812)
- Sequence (P51812 whole entry): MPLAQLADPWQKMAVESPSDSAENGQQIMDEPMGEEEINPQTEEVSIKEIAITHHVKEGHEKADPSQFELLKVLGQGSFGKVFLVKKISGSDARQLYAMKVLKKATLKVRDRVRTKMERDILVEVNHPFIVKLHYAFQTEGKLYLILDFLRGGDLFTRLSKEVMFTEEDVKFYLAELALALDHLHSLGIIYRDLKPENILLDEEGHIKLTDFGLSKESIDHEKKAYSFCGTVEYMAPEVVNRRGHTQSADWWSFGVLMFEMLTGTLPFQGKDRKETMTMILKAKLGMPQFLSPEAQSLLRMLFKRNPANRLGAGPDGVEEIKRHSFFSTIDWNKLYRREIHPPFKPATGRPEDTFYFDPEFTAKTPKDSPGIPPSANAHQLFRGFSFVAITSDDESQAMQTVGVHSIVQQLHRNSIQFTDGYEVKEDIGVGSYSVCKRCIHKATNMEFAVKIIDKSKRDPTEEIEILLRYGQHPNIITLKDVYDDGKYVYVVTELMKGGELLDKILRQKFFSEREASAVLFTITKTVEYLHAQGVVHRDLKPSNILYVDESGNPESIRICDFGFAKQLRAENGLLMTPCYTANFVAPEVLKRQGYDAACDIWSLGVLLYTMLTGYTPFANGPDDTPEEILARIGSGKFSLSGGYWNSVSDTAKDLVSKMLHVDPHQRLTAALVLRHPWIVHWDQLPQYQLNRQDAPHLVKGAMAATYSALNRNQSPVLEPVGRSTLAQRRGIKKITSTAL
- ASSAY: Inhibition of RSK2 (unknown origin) using AKRRRLSSLRA as substrate at 10 uM after 60 mins by fluorescence assay relative to control
PROPERTY MEASURED: inhibition (%)

INSERT INTO assay_data (molecular_string, property_measured, censoring_sign, endpoint_result) VALUES
  ('O=C1Nc2ccc(F)cc2/C1=C/c1ccc(-c2cccc(Br)c2)o1', 'inhibition', '=', 26.3),
  ('O=C1Nc2ccccc2/C1=C/c1ccc(-c2c(Cl)cc(C(F)(F)F)cc2Cl)o1', 'inhibition', '<', 10),
  ('CCn1c(/C=C2\C(=O)Nc3ccccc32)nc2ccccc2c1=O', 'inhibition', '<', 10),
  ('Cc1c(Cl)ccc2c1NC(=O)/C2=C1\SC(=S)NC1=O', 'inhibition', '=', 39.6),
  ('O=C1Nc2ccc(Cl)cc2/C1=C/c1c[nH]nc1-c1ccc(F)cc1', 'inhibition', '=', 44.5),
  ('O=C1Nc2ccccc2/C1=C/c1ccc(-c2ccccc2Cl)o1', 'inhibition', '=', 16.8);

====

- System: PC-3
- ASSAY: Cytotoxicity against human PC3 cells assessed as growth inhibition after 48 hrs by MTT assay
- Format: functional, cell-based
- STATED CONDITIONS: PC-3, 48 h
Flag rule - IC50 less than 20 µM flags Criterion met; the remaining entries get Criterion not met.

INSERT INTO assay_data (compound, assigned_label) VALUES
  ('O=C1Nc2ccccc2/C1=C/c1c[nH]nc1-c1ccccc1[N+](=O)[O-]', 'Criterion met'),
  ('O=C1Nc2ccccc2/C1=C/c1c[nH]nc1-c1ccccc1', 'Criterion met'),
  ('O=C1Nc2ccc(Cl)cc2/C1=C\c1ccco1', 'Criterion not met'),
  ('Cn1cc(C2=C(c3cn(CCCSC(=N)N)c4ccccc34)C(=O)NC2=O)c2ccccc21 [BISINDOLYLMALEIMIDE IX]', 'Criterion met'),
  ('O=C1Nc2ccc(Br)cc2/C1=C\c1ccco1', 'Criterion met');

====

- TARGET ENTITY: Ribosomal protein S6 kinase alpha-3 (Homo sapiens, UniProt P51812)
- ASSAY: Inhibition of RSK2 (unknown origin) using AKRRRLSSLRA as substrate at 10 uM after 60 mins by fluorescence assay relative to control
Would you mind labelling by inhibition? At or over 40% is y, under is n.

INSERT INTO results (molecular_string, assigned_label) VALUES
  ('O=C1Nc2ccc(Br)cc2/C1=C\c1ccco1', 'y'),
  ('O=C1Nc2ccc(Br)cc2/C1=N/NC(=O)c1ccco1', 'n'),
  ('O=C1Nc2ccc(Br)cc2/C1=C/c1ccc(-c2cccc(Br)c2)o1', 'n'),
  ('O=C1Nc2ccccc2/C1=C/c1c[nH]nc1-c1ccccc1[N+](=O)[O-]', 'y'),
  ('O=C1Nc2ccc(Cl)cc2/C1=C/c1ccc(-c2cccc(Br)c2)o1', 'n'),
  ('CCc1cccc2c1NC(=O)/C2=C1\SC(=S)NC1=O', 'y'),
  ('Nc1ccc2c(c1)/C(=C\c1ccco1)C(=O)N2', 'y'),
  ('O=C1Nc2ccccc2/C1=C/c1c[nH]nc1-c1ccccc1', 'y'),
  ('O=C1Nc2ccc(F)cc2/C1=C/c1c[nH]nc1-c1ccc(F)cc1', 'n'),
  ('Cc1ccc(N/N=C2/C(=O)Nc3ccc(F)cc32)cc1', 'n'),
  ('O=C1Nc2ccc(Cl)cc2/C1=C/c1c[nH]nc1-c1ccc(Cl)cc1', 'n'),
  ('O=C1Nc2ccc(Cl)cc2/C1=C1/S/C(=N\c2ccccc2)N(c2ccccc2)C1=O', 'n'),
  ('NC(=O)c1ccc(/N=C2/C(=O)Nc3ccccc32)cc1', 'n'),
  ('Cc1cccc2c1NC(=O)/C2=C1\SC(=S)NC1=O', 'y'),
  ('O=C1Nc2ccc(Br)cc2/C1=C/c1c[nH]nc1-c1ccccc1', 'n'),
  ('N=C1NC(=O)/C(=C2/C(=O)Nc3cc(Cl)ccc32)S1', 'n'),
  ('O=C1Nc2ccc(Cl)cc2/C1=C\c1ccco1', 'y'),
  ('O=C1Nc2ccccc2/C1=C/c1c[nH]nc1-c1ccc(F)cc1', 'n'),
  ('O=C1Nc2ccc(Br)cc2/C1=C/c1c[nH]nc1-c1ccc(F)cc1', 'n'),
  ('O=C1Nc2ccccc2/C1=N/N=C1\CCCc2c1[nH]c1ccc(Cl)cc21', 'n'),
  ('O=C1Nc2ccc(Cl)cc2/C1=C/c1ccc(-c2ccccc2Cl)o1', 'n'),
  ('O=C1Nc2ccc([N+](=O)[O-])cc2/C1=C\c1ccco1', 'n'),
  ('COc1ccc(-n2c(/C=C3\C(=O)Nc4ccccc43)nc3ccc(I)cc3c2=O)cc1', 'n');

====

Listing of entries alongside the reported inhibition.
- TARGET ENTITY: Ribosomal protein S6 kinase alpha-3 (Homo sapiens, UniProt P51812)
- ASSAY: Inhibition of RSK2 (unknown origin) using AKRRRLSSLRA as substrate at 10 uM after 60 mins by fluorescence assay relative to control
PROPERTY MEASURED: inhibition (%)

INSERT INTO assay_data (molecular_string, target_entity, censoring_sign, endpoint_result) VALUES
  ('O=C1Nc2ccc(Br)cc2/C1=N/NC(=O)c1ccc2c(c1)OCO2', 'Ribosomal protein S6 kinase alpha-3 (Homo sapiens, UniProt P51812)', '<', 10),
  ('O=C1Nc2ccc(Br)cc2/C1=C/c1ccc(-c2ccccc2Cl)o1', 'Ribosomal protein S6 kinase alpha-3 (Homo sapiens, UniProt P51812)', '=', 22.3),
  ('O=C1Nc2ccc(F)cc2/C1=C/c1ccc(-c2ccccc2Cl)o1', 'Ribosomal protein S6 kinase alpha-3 (Homo sapiens, UniProt P51812)', '=', 17.1),
  ('O=C1Nc2ccc(F)cc2/C1=C/c1c[nH]nc1-c1ccccc1', 'Ribosomal protein S6 kinase alpha-3 (Homo sapiens, UniProt P51812)', '=', 78.4),
  ('COc1ccc2c(c1)/C(=C\c1ccco1)C(=O)N2', 'Ribosomal protein S6 kinase alpha-3 (Homo sapiens, UniProt P51812)', '=', 25.6),
  ('O=C1Nc2ccccc2/C1=C/c1ccc(-c2cccc(Br)c2)o1', 'Ribosomal protein S6 kinase alpha-3 (Homo sapiens, UniProt P51812)', '=', 21.9),
  ('O=C1Nc2ccc(Cl)cc2/C1=C/c1c[nH]nc1-c1ccccc1', 'Ribosomal protein S6 kinase alpha-3 (Homo sapiens, UniProt P51812)', '=', 33.2),
  ('O=C1Nc2ccccc2/C1=C/c1ccco1', 'Ribosomal protein S6 kinase alpha-3 (Homo sapiens, UniProt P51812)', '=', 69.6),
  ('O=C1Nc2ccccc2/C1=C/c1ccc(CN2C(=O)c3ccccc3C2=O)o1', 'Ribosomal protein S6 kinase alpha-3 (Homo sapiens, UniProt P51812)', '=', 16.5),
  ('CC(=O)NN1C(=O)/C(=C2/C(=O)Nc3ccc(C)cc32)SC1=S', 'Ribosomal protein S6 kinase alpha-3 (Homo sapiens, UniProt P51812)', '=', 41.1),
  ('CCc1ccc2c(c1)/C(=N\NC(=O)CSc1ccc(Cl)cc1)C(=O)N2', 'Ribosomal protein S6 kinase alpha-3 (Homo sapiens, UniProt P51812)', '<', 10);

====

- TARGET ENTITY: Ribosomal protein S6 kinase alpha-3 (Homo sapiens, UniProt P51812)
- ASSAY: Inhibition of RSK2 (unknown origin) using AKRRRLSSLRA as substrate after 60 mins by fluorescence assay
pIC50: −log10 of the molar value.
PROPERTY MEASURED: pIC50

INSERT INTO assay_data (molecular_string, target_entity, endpoint_result) VALUES
  ('O=C1Nc2ccccc2/C1=C/c1c[nH]nc1-c1ccccc1[N+](=O)[O-]', 'Ribosomal protein S6 kinase alpha-3 (Homo sapiens, UniProt P51812)', 6.30),
  ('O=C1Nc2ccc(Br)cc2/C1=C\c1ccco1', 'Ribosomal protein S6 kinase alpha-3 (Homo sapiens, UniProt P51812)', 5.82),
  ('O=C1Nc2ccccc2/C1=C/c1ccco1', 'Ribosomal protein S6 kinase alpha-3 (Homo sapiens, UniProt P51812)', 5.46),
  ('O=C1Nc2ccc(Cl)cc2/C1=C\c1ccco1', 'Ribosomal protein S6 kinase alpha-3 (Homo sapiens, UniProt P51812)', 5.69),
  ('CCc1cccc2c1NC(=O)/C2=C1\SC(=S)NC1=O', 'Ribosomal protein S6 kinase alpha-3 (Homo sapiens, UniProt P51812)', 4.77),
  ('O=C1Nc2ccc(F)cc2/C1=C/c1c[nH]nc1-c1ccccc1', 'Ribosomal protein S6 kinase alpha-3 (Homo sapiens, UniProt P51812)', 5.07),
  ('O=C1Nc2ccccc2/C1=C/c1c[nH]nc1-c1ccccc1', 'Ribosomal protein S6 kinase alpha-3 (Homo sapiens, UniProt P51812)', 5.57),
  ('Cc1cccc2c1NC(=O)/C2=C1\SC(=S)NC1=O', 'Ribosomal protein S6 kinase alpha-3 (Homo sapiens, UniProt P51812)', 5.77),
  ('Nc1ccc2c(c1)/C(=C\c1ccco1)C(=O)N2', 'Ribosomal protein S6 kinase alpha-3 (Homo sapiens, UniProt P51812)', 5.60);
